target: EBOV GP ectodomain residues 1-636 (GPec) (Zaire ebolavirus, strain  …, UniProt Q05320)

| binder | binding result |
| --- | --- |
| 5.6.c3054 (antibody, V domains shown) VH: QVTLRESGPALVKPTQTLTLTCTFSGFSLSTSGMCVSWIRQPPGKALEWLALIDWNDGKYYTTSLKTRLTISKDTSKNQVVLTMTNMDPVDTATYYCARIFTSSDWFYDAFDLWGQGAMVTVSS VL: QIVMTQSPATLSVSPGERATLSCRASQSVNNNLAWYQQKPGQAPRLLISGASTRATGIPARFSGSGFGTEFTLTISSLQSEDFAVYYCQQYNTWPPLTFGPGTRVDIK | binds |
| 9.1.c1853 (antibody, V domains shown) VH: EVQLVQSGAEVKKPGESLRISCKGSGNSFSSYWISWVRQKPGKGLEWMGRIDPSDSYTSYSPSFQGHVTISADKTNSTAYLQWSGLKASDTAVYYCAREVAGEEIFYYYYMDVWGKGTPVTVSS VL: EIVLTQSPVTLSLSPGEKATLSCRASQSVISSYLVWYQQKPGQAPRLLIYGASNRASGIPDRFSGSGSGTDFTLTISRLEPEDFAVYYCQLYGSLPRWTFGQGTEVQIK | binds |
| 9.1.c1482 (antibody, V domains shown) VH: QLQLQESGPGLVKPSETLSLTCTVSGGSITSGSNYWGWIRQSPGKGLEWIGSIYYSGSTYYNPSLKSRVTTSVDTSKNQFSLRMSSVTAADTALYYCVRHLSTELLFGCFDPWGQGTLVTVSS VL: DIQMTQSPSTLSASVGDRVTITCRASQSITGWLAWYQQKPGKAPKLLIYDASSLESGVPSRFSGSGSGTEFTLTISSLQPDDFATYYCLQYHSYSSFGQGTKLEIK | binds |

All values here come from paper PMC6908968.
